molecular target: Recombinant human his-tagged IGF 1R extracellular domain protein (human) (UniProt P08069); assay: SPR, captured IgG, IGF-1R ECD-his analyte, dissociation pH 7.4
quantity: kon

Inquiry: # query: kon of entry VRDN-02505 (antibody, V domains shown) VH: EVQLVQSGGGLVKPGGSLRLSCAASGFTFHSFAMHWVRQAPGKGLEWISVIDTRGATYYADSVKGRFTISRDNAKNSLYLQMNSLRAEDTAVYYCARLGNFYYGMDVWGQGTTVTVSS VL: EIVLTQSPGTLSVSPGERATLSCRASQSIGSSLHWYQQKPGQAPRLLIKYASQSLSGIPDRFSGSGSGTDFTLTISRLEPEDFAVYYCHQSSRLPHTFGQGTKVEIK
Reply text: 144000 M⁻¹ s⁻¹

Inquiry: What measured kon goes with VRDN-02520 (antibody, V domains shown) VH: EVQLVQSGGGLVKPGGSLRLSCAASGFTFSSFAMHWVRQAPGKGLEWISVIDTRGATYYADSVKGRFTISRDNAKNSLYLQMNSLRAEDTAVYYCARLGHFYYGMDVWGQGTTVTVSS VL: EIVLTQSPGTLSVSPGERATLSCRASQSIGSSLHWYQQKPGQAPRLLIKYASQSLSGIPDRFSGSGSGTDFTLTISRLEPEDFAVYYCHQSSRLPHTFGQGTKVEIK ?
Reply text: 145000 M⁻¹ s⁻¹

Inquiry: Name the recorded kon for VRDN-02510 (antibody, V domains shown) VH: EVQLVQSGGGLVKPGGSLRLSCAASGFTFSSFAMHWVRQAPGKGLEWISVIHTRGATYYADSVKGRFTISRDNAKNSLYLQMNSLRAEDTAVYYCARLGNFYYGMDVWGQGTTVTVSS VL: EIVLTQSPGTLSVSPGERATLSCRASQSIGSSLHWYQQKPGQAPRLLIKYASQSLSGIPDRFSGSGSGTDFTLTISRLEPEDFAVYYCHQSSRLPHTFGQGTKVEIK .
Reply text: 248000 M⁻¹ s⁻¹
